Assay: yeast display, Sf9 membrane polyspecificity reagent, FACS + sequencing; frameworks hold sequencing errors
REPORTED_METRIC: polyreactivity (PSR sort gate)

Example cases with answers are listed next.
QVQLVDSGGGLVQAGGSLRLSCAASGRTFTQNAKGWYRPAPGKERELVAAIRRGGSTNYADSVKWRFTISRDNAKNTVYLQMKSLKPEDTAVYYCATECYYGFSYRYDFWGLGTQVTVSS | high polyreactivity
QVQLVESGGCLVQAGGSLRLSCAASGSTFENYAMGWYRPAPGKERELVATISIDGRTNYADSVKGRFTISRDNAKNTVFLQMNSLKPEDTGVYYCAARPYWRHRYDYWGQGTQVTVSS | low polyreactivity
QVQLVESGGGLVQAGGSLRLSCAASGRIFQYYAMGWYRQAPGKERELVAAITRSGGSTYYADSVNGRFTISRDNAKNTVYLQMNSLKPEDTAVYYCARTYWITNSKFRDYLGAYGGEYWGQGTQVTVSS | high polyreactivity
QVQLVESGGGLVQAGGRLRLRCAASGSIFYAYDRGWYRQAPGKERELVAAINWSGDSTYYADSVKGRFTISRDNAKNTVDLQMNSLKPEDTALYYCAAVSGSGDSGEYDYWGQGTQVTVSS | low polyreactivity

Ask: Dear colleague, I am looking for the recorded polyreactivity (PSR sort gate) of the following sequence: "QVQLVESGGGLVQAGGSLRLSCAASGRTSRFDAMGWDIEAPGKERELVARITTRGGSTYYADSVKGRFTISRDNAKNTVYLQMNSLKPEDTAVYFCNAKVTRGDVGGRFEYWGQGTQVTVSS"
Result: high polyreactivity

Ask: Dear colleague, I am looking for the recorded polyreactivity (PSR sort gate) of the following sequence: "QVQLEESGGGLVQAGGSLRLSCAASGSIFSAYFMVWYRQAPGKERELVAAINRGGNTYYADSVKGRFTISRDNANITVYLQMNSLKPEDTAVYYCNAQWYYLRYRYDYWGQGTQVTVSS"
Result: high polyreactivity

Values compiled from the nanobody polyreactivity screen of Harvey et al. (2022).
